test system: ex vivo cultures of donor gut microbiome (BG medium); test: MDMQ-Screen 20-donor screen: drug depletion and metabolite production in ex vivo cultures, targeted metabolomics by HPLC-HRMS; settings: 20 donors, BG medium, drug 33 μM, 24-hour incubation; significant if FDR p<0.01 and depletion >50% vs controls

- MOLECULE: "CC(C)/N=c1\\cc2n(-c3ccc(Cl)cc3)c3ccccc3nc-2cc1Nc1ccc(Cl)cc1 [clofazimine]"
  MDM in drug depletion across donors: "variable"
- MOLECULE: "CCCCCOC(=O)Nc1nc(=O)n([C@@H]2O[C@H](C)[C@@H](O)[C@H]2O)cc1F [capecitabine]"
  MDM in drug depletion across donors: "variable"
- MOLECULE: "COc1c(C)c2c(c(O)c1C/C=C(\\C)CCC(=O)OCCN1CCOCC1)C(=O)OC2 [mycophenolate mofetil]"
  MDM in drug depletion across donors: "variable"

* * *

tested on: ex vivo cultures of donor gut microbiome (BG medium); assay: MDMQ-Screen 20-donor screen: drug depletion and metabolite production in ex vivo cultures, targeted metabolomics by HPLC-HRMS; conditions: 20 donors, BG medium, drug 33 μM, 24-hour incubation; significant if FDR p<0.01 vs all three controls
MEASURED_QUANTITY: MDM in metabolite production across donors

Known MDM in metabolite production across donors results, listed for orientation:
- COMPOUND: "CCCCCOC(=O)Nc1nc(=O)n([C@@H]2O[C@H](C)[C@@H](O)[C@H]2O)cc1F"
  OBSERVED_MEASUREMENT: "variable"
- COMPOUND: "CC1=C(CC(=O)O)c2cc(F)ccc2/C1=C\\c1ccc([S+](C)[O-])cc1 (centres unmarked)"
  OBSERVED_MEASUREMENT: "variable"
- COMPOUND: "O=C1CN=C(c2ccccc2Cl)c2cc([N+](=O)[O-])ccc2N1"
  OBSERVED_MEASUREMENT: "consistently positive"
- COMPOUND: "COc1c(C)c2c(c(O)c1C/C=C(\\C)CCC(=O)OCCN1CCOCC1)C(=O)OC2 [mycophenolate mofetil]"
  OBSERVED_MEASUREMENT: "variable"
- COMPOUND: "Cc1ccc(C(=O)c2cc(O)c(O)c([N+](=O)[O-])c2)cc1"
  OBSERVED_MEASUREMENT: "consistently positive"

## Input Data request, read-out MDM in metabolite production across donors, for "CC[C@H](C)C(=O)O[C@H]1C[C@@H](C)C=C2C=C[C@H](C)[C@H](CC[C@@H]3C[C@@H](O)CC(=O)O3)[C@H]21"
## Output variable

## Input How about "CC(=O)S[C@@H]1CC2=CC(=O)CC[C@]2(C)[C@H]2CC[C@@]3(C)[C@@H](CC[C@@]34CCC(=O)O4)[C@H]12" ?
## Output variable

## Input How about "CC(C)/N=c1\cc2n(-c3ccc(Cl)cc3)c3ccccc3nc-2cc1Nc1ccc(Cl)cc1" ?
## Output variable

* * *

tested on: ex vivo cultures of donor gut microbiome (BG medium); assay: MDMQ-Screen 20-donor screen: drug depletion and metabolite production in ex vivo cultures, targeted metabolomics by HPLC-HRMS; conditions: 20 donors, BG medium, drug 33 μM, 24-hour incubation; significant if FDR p<0.01 and depletion >50% vs controls
MEASURED_QUANTITY: MDM in drug depletion across donors

Known MDM in drug depletion across donors results, listed for orientation:
- MOLECULE: "CC[C@H](C)C(=O)O[C@H]1C[C@@H](C)C=C2C=C[C@H](C)[C@H](CC[C@@H]3C[C@@H](O)CC(=O)O3)[C@H]21"
  STUDY_SYSTEM: "ex vivo cultures of donor gut microbiome (BG medium)"
  MDM in drug depletion across donors: "variable"
- MOLECULE: "O=C1CN=C(c2ccccc2Cl)c2cc([N+](=O)[O-])ccc2N1"
  STUDY_SYSTEM: "ex vivo cultures of donor gut microbiome (BG medium)"
  MDM in drug depletion across donors: "consistently positive"
- MOLECULE: "C#C[C@]1(O)CC[C@H]2[C@@H]3CCC4=CC(=O)CC[C@@H]4[C@H]3CC[C@@]21CC"
  STUDY_SYSTEM: "ex vivo cultures of donor gut microbiome (BG medium)"
  MDM in drug depletion across donors: "variable"
- MOLECULE: "Cc1nc2n(c(=O)c1CCN1CCC(c3noc4cc(F)ccc34)CC1)CCCC2"
  STUDY_SYSTEM: "ex vivo cultures of donor gut microbiome (BG medium)"
  MDM in drug depletion across donors: "consistently positive"
- MOLECULE: "CC1=C(CC(=O)O)c2cc(F)ccc2/C1=C\\c1ccc([S+](C)[O-])cc1 (centres unmarked)"
  STUDY_SYSTEM: "ex vivo cultures of donor gut microbiome (BG medium)"
  MDM in drug depletion across donors: "variable"

## Input Data request, read-out MDM in drug depletion across donors, for C[C@]12CCC(=O)C=C1CC[C@@H]1[C@@H]2[C@@H](O)C[C@@]2(C)[C@H]1CC[C@]2(O)C(=O)CO [hydrocortisone]
## Output variable

## Input How about "O=C(CCCCCCC(=O)Nc1ccccc1)NO" ?
## Output variable

## Input How about "CC(=O)S[C@@H]1CC2=CC(=O)CC[C@]2(C)[C@H]2CC[C@@]3(C)[C@@H](CC[C@@]34CCC(=O)O4)[C@H]12" ?
## Output consistently positive
